Experiment: yeast display, Sf9 membrane polyspecificity reagent, FACS + sequencing; frameworks hold sequencing errors
recorded-endpoint: polyreactivity (PSR sort gate)

Some solved cases for reference:
INSERT INTO assay_data (record_sequence, recorded_endpoint, result) VALUES
  ('QVQLVESGGGLVQAGGSLRLSCAASGSTFLPYALGWYRQAPGKERELVAAIDWNGGRTYYADSVKGRFTISRDNAKNTVYLQMNSLKPEDTAVYYCAKLGRAAQGNYYWGQGTQVTVSS', 'polyreactivity (PSR sort gate)', 'high polyreactivity'),
  ('QVKLVESGGGLVQAGGSLRLSCAASGGTFTLYAMGWYRQAPGKERELVAAISTSGGSTYYADSVKGRFTISRDNAKNTVYLQMNSLKPEDTAVYYCAAVTRYAGRIRYGYWGQGTQVTVSS', 'polyreactivity (PSR sort gate)', 'high polyreactivity'),
  ('QVQLVESGGCIVQAGGSLRLSCAAYGRIFAKYVMGWSRKAPGKERELVAAITSSGGSTYYADSVKGRFTISRDNAKNTVYVQMNSLKSEDTAVYYGAAGPSYHSSYYSWGQVTQVTVSS', 'polyreactivity (PSR sort gate)', 'high polyreactivity'),
  ('QVQLVESGGGLVQAGGSLRLSCAASGNTFEFYAMGWYRQAPGKERELVAAISASGGRTYYADSVKGRFTISRDNAKNTVYLQMNSLKPEDTAVYYCAAVRKSTRFDYWGQGTQVTVSS', 'polyreactivity (PSR sort gate)', 'high polyreactivity'),
  ('QVQLVESGGGLVQAGGSLRLSCAASGSIFVGYAMGWYRQAPGKERELVAAITGSGTRTYYADSVKGRFTISRDNAKNTVFLQMNSLKPEDTAVYYCAAPLSYKNVKYDYWGQGTQVTVSS', 'polyreactivity (PSR sort gate)', 'low polyreactivity'),
  ('QVQLVESGGGLVQAGGSLRLSCAASGSTQRFYAMGWYRQAPGKERELVAVISRGGSTYFADSVKGRFTISRDNAKNTVYLQMNSLKPEDTAVYYCAAYHRTSAARPIYDYWGQGTQVTVSS', 'polyreactivity (PSR sort gate)', 'low polyreactivity'),
  ('QVQLVESGRGLVQAGGSLPLSSASSGLTFKTYAMGRYRQAPGKVSELVAAITSGGTSTYYADSVKGRFTISRDNAKNTVYFQMNSLKPEDTAVYYCAARYYFSYSVGYYYWGQGTQVTVSS', 'polyreactivity (PSR sort gate)', 'high polyreactivity'),
  ('EVQLVESGGGLVQPGGSLRLSCAASGYIYSRYRMGWYRQAPGKGREFVAAISGGSSTNYADSVKGRFTSSRDNSKNTVYLQMNSLRAEDTAVYYCAAYKIDSDQRVYWGQGTQVTVSS', 'polyreactivity (PSR sort gate)', 'low polyreactivity');

Read the entry QVHLVESGGGLVQAGGSLRLSCDASGSIIDGYGMGWYRQAPGKERELVASITWNDGSTYYADSVKGRFTISRDNAKNTVYLQMNSLKPEDTAVYYCAADQWGYEYDYWGQGTQVTVSS and write its reported polyreactivity (PSR sort gate). low polyreactivity

Read the entry QVHLVESGGRLVQAGGSLRLSCAASGFIFQWYAMGWYRQAPGKERELVAAINSSGSTNYADSVKGRFTISRDNAKNTVYLQMNSLKPEDTAVYYCAAHWRYGRKFDYWGQGTQVTVSS and write its reported polyreactivity (PSR sort gate). high polyreactivity

Read the entry QVQLVETRGGLVQAGGSLRLSCAASGSIFLQNAMGWYRQAPGKERELVAAITNGGSTNYADSVKGRFTISRDNAKNTVYLQMNSLKPEDTAVYYCAAYPLYTGSYDRGGYWGQGTQVTVSS and write its reported polyreactivity (PSR sort gate). low polyreactivity
